Would you kindly list Ki for each of these compounds?
- procedure-details: Inhibition of Malassezia globosa beta-carbonic anhydrase preincubated for 15 mins prior to testing by phenol red-based stopped-flow CO2 hydration assay
State the answer as a number, implicitly in nM.

Short answer for CC1COCCN1C(=S)S (centres undefined) : Ki was 660

Short answer for O=C(O)C1CCCN(C(=S)S)C1 (centres undefined) : Ki was 718

Short answer for S=C(S)N[C@H]1CN2CCC1CC2 : Ki was 490

Short answer for O=C(CN1CCN(C(=S)S)CC1)NC1CCCCC1 : Ki was 801

Short answer for NS(=O)(=O)c1ccc(CCNC(=S)S)cc1 : Ki was 914

Short answer for O=C(O)[C@@H]1CCCN(C(=S)S)C1 : Ki was 577

Short answer for S=C(S)NCCc1ccccc1 : Ki was 4620

Short answer for CC(C)(C)OC(=O)NC1CCCN(C(=S)S)C1 (centres undefined) : Ki was 644

Short answer for S=C(S)N[C@@H]1CN2CCC1CC2 : Ki was 724

Short answer for OC1CCCN(C(=S)S)C1 (centres undefined) : Ki was 678

Short answer for S=C(S)N1CCCCC1 : Ki was 773

Short answer for O=C(O)[C@H]1CCCN(C(=S)S)C1 : Ki was 929

Short answer for OCCCNC(=S)S : Ki was 3190

Short answer for O=C(O)C1COCCN1C(=S)S (centres undefined) : Ki was 4740

---

- procedure-details: Inhibition of Malassezia globosa beta-carbonic anhydrase preincubated for 15 mins prior to testing by phenol red-based stopped-flow CO2 hydration assay
quantity: Ki (nM)
State the answer as a number, implicitly in nM.

Short answer for S=C(S)NC1CN2CCC1CC2 (racemic) : Ki was 643

Short answer for O=C(O)C1CCCCN1C(=S)S (stereo not drawn) : Ki was 2400

Short answer for CC(=O)NC1CCCN(C(=S)S)C1 (stereo not drawn) : Ki was 885

Short answer for CN(C)CCNC(=S)S : Ki was 2980

Short answer for OCCCCCNC(=S)S : Ki was 383

Short answer for O=C(O)C1CCN(C(=S)S)CC1 : Ki was 556

Short answer for CC(=O)Nc1nnc(S(N)(=O)=O)s1 [ACETAZOLAMIDE] : Ki was 74000

Short answer for OCCCCNC(=S)S : Ki was 6240
